Hey, just so you know, these numbers are from ChEMBL document CHEMBL1126595.

Assay: Solubility at pH 7.4
Assay type: physicochemical
Conditions: buffer
property-measured: solubility (µg/mL)

# count of solved cases: 5
Given "CC(C)C[C@H](O)[C@H](O)[C@H](CC1CCCCC1)NC(=O)[C@H](Cc1cscn1)NC(=O)[C@@H](CC(=O)N(C)CCn1cccn1)Cc1ccccc1" , state its recorded solubility.
44

Now give it for "CC(C)C[C@H](O)[C@H](O)[C@H](CC1CCCCC1)NC(=O)[C@H](Cc1cscn1)NC(=O)[C@@H](CC(=O)N(C)CCn1ccnc1)Cc1ccccc1" too.
120

Now give it for "CC(C)C[C@H](O)[C@H](O)[C@H](CC1CCCCC1)NC(=O)[C@H](Cc1cscn1)NC(=O)[C@@H](CC(=O)N(C)CCc1ccncc1)Cc1ccccc1" too.
12

Now give it for "CC(C)C[C@H](O)[C@H](O)[C@H](CC1CCCCC1)NC(=O)[C@H](Cn1cccn1)NC(=O)[C@@H](CC(=O)N(C)CCc1ccccn1)Cc1ccccc1" too.
14

Now give it for "COCCOCOCCN(C)C(=O)C[C@@H](Cc1ccccc1)C(=O)N[C@@H](Cc1cscn1)C(=O)N[C@@H](CC1CCCCC1)[C@@H](O)[C@@H](O)CC(C)C" too.
180

[P] COCCOCOCCN(C)C(=O)C[C@@H](Cc1ccccc1)C(=O)N[C@@H](Cc1c[nH]cn1)C(=O)N[C@@H](CC1CCCCC1)[C@@H](O)[C@@H](O)CC(C)C
[Q] CC(C)C[C@H](O)[C@H](O)[C@H](CC1CCCCC1)NC(=O)[C@H](Cc1cscn1)NC(=O)[C@@H](CC(=O)N(C)CCc1ccccn1)Cc1ccccc1
When the recorded solubility values are compared, which is smaller: that of P or that of Q ? Write down the label of the entry you select.
Q
